assay_info: qHTS assay to identify small molecule agonists of H2AX - cell viability counter screen (AID 1224847); further: nearly all actives have a fitted effect of over 30% in size
particulars: CHO-K1 viability, CellTiter-Glo luminescence, 3 h; series mostly up to 154 µM
Results filed as inconclusive are left out. Active and inactive are the calls of the source. The call rests on the fitted dose curve.
Write down the outcome that applies. Available outcomes: TRUE for active, FALSE for inactive

Sample answers from the record:
- Cn1[nH]nnc1=S: FALSE
- Cl/C=C\CCl: FALSE
- CCC(C)(C)C(=O)OC1=C(c2ccc(Cl)cc2Cl)C(=O)OC12CCCCC2: FALSE
- ClCc1ccc(Cl)cc1Cl: FALSE
- Oc1c(Cl)c(Cl)cc(Cl)c1Cl: TRUE
- CCSC(C)CC1CC(=O)C(/C(CC)=N/OC/C=C/Cl)=C(O)C1 (configuration not stated): FALSE

Input: # lookup: test call for CC(C)C1CCC(Cc2ccc(Cl)cc2)C1(O)Cn1cncn1 (configuration not stated)
Output: TRUE

Input: # lookup: test call for `Cc1cc(C)cc(OP(=O)(Oc2cc(C)cc(C)c2)Oc2cc(C)cc(C)c2)c1`
Output: FALSE

Input: # lookup: test call for `CC(C)OC(=O)C(O)(c1ccc(Cl)cc1)c1ccc(Cl)cc1`
Output: TRUE
